Give Growth Rate for every item shown.
# System: Fibroblast
# assay_protocol: Incucyte cell viability with human fibroblast; note: unitless GR value; below 1 slowed growth and below 0 cell loss
# Type: toxicity, cell-based
# experimental_conditions: 12 h, 10 µM, compound concentration 10 uM, replicate number 1
Answer with a number only.

Which Growth Rate reading was recorded for the molecule CCCCC[C@@](C)(O)/C=C/[C@H]1C(=O)CC(O)C1C/C=C\CCCC(=O)O (stereo partly drawn) ?
0.71

Could you share which Growth Rate value was measured for C[C@H](CCOc1cccc(CC(=O)O)c1)N(Cc1cccc(C(F)(F)F)c1Cl)CC(c1ccccc1)c1ccccc1.Cl ?
0.72

What Growth Rate value was documented for this molecule, O[C@]1(C(F)(F)F)CCCC[C@H]1Nc1ccc(F)cc1 ?
0.69

###

# System: Fibroblast
# assay_protocol: Incucyte cell viability with human fibroblast; note: unitless GR value; below 1 slowed growth and below 0 cell loss
# Format: toxicity, cell-based
# experimental_conditions: 12 h, 10 µM, compound concentration 10 uM, replicate number 2
measurement_label: Growth Rate
The response must contain the number and no unit.

Any idea what Growth Rate was measured for Cl.N/C(=N\C(=O)c1nc(Cl)c(N)nc1N)NCc1ccccc1 [BENZAMIL HYDROCHLORIDE] ?
0.56

# lookup: Growth Rate of COc1cc2ncnc(Nc3ccc(F)c(Cl)c3)c2cc1OCCN(C)C[C@H](C)O
-0.12

Which Growth Rate value is on record for C[C@H](CCC(=O)[O-])[C@H]1CC[C@H]2[C@@H]3[C@@H](O)C[C@@H]4C[C@H](O)CC[C@]4(C)[C@H]3CC[C@]12C.[Na+] ?
0.91

Please report the recorded Growth Rate for CC(=O)Nc1nc(CN2CCC[C@H](Cc3cc(C)nc(C)c3)C2)cs1 [JNJ-73924149] .
0.74

Quick one: Growth Rate for O=C(Nc1ccc(Cl)c(-c2ccccn2)c1)c1cccc(COc2ccc(Br)cc2CNCCO)c1.O=CO ?
-0.14

Which Growth Rate is reported for this compound? O=C(NS(=O)(=O)N1CCC1)c1cc(C2CC2)c(OCC23CC4CC(CC(C4)C2)C3)cc1F
-0.01

// lookup Growth Rate for CC(C=CC1=C(C)CCCC1(C)C)=CC=CC(C)=CC(=O)O
0.99

What value of Growth Rate has been reported for the following compound? CC(C)CNc1nc(N2CCN(CC3CCCOC3)CC2)ncc1C(=O)NCc1ccccc1 (centres undefined)
-0.95

Tell me the measured Growth Rate of COc1cc(C(=O)N2CC[C@@H](O)[C@@H](N)C2)cc2nc(-c3cc4ccccc4n3CC3CC3)n(C)c12.Cl , please.
0.16

Using the record for COc1cc(-c2cncc(-c3ccc(N4CCN(C(C)C)CC4)cc3)c2C)cc(F)c1C(=O)N1CCCC1 , report its Growth Rate.
0.11

Item COc1ccccc1-n1nc(C2CC(C)(C)OC(C)(C)C2)cc1-c1ccc(Cl)cc1 has what recorded Growth Rate?
0.99

Bench note: what Growth Rate did Cc1cc(OC2CCS(=O)(=O)CC2)cc(C)c1-c1cccc(COc2ccc(CCC(=O)O)c(F)c2)c1 show?
0.88

Quick one: Growth Rate for CC(C)Oc1ccc(Cc2ccc(NC3=NCCN3)cc2)cc1 ?
0.88

Suppose we examine the compound CCCC(=O)C1CCN(c2ncnc3c2CN(C(=O)c2ccc(-c4ccccc4)cc2)CC3)CC1 ; what Growth Rate value has been reported?
0.73

###

# Test system: U2OS
# assay_protocol: Incucyte cell viability with U2OS; note: unitless GR value; below 1 slowed growth and below 0 cell loss
# Type: toxicity, cell-based
# experimental_conditions: human, 18 h, 10 µM, compound concentration 10 uM, replicate number 1
Lab note: compare Growth Rate against -0.1. Equal or greater, write Yes. Smaller, write No.

Reported Growth Rate at or above -0.1? CC(=O)O[C@H]1C(=O)[C@@]2(C)[C@H]([C@H](OC(=O)c3ccccc3)[C@]3(O)C[C@H](OC(=O)[C@H](O)[C@@H](NC(=O)c4ccccc4)c4ccccc4)C(C)=C1C3(C)C)[C@]1(OC(C)=O)CO[C@@H]1C[C@@H]2O [PACLITAXEL]
No

Could you tell me if the measured Growth Rate of COCCN1CCN(CCn2ccc(Nc3ncc4c(n3)-c3c(nn(C)c3-c3ccccc3)C[C@H]4C)n2)CC1 reaches -0.1 or more?
Yes

Does Growth Rate meet or surpass -0.1 for COc1cc(C(=O)NC2CCN(C)CC2)ccc1Nc1ncc(C(F)(F)F)c(NCc2ccc(C)cc2N(C)S(C)(=O)=O)n1.O=CO.O=CO ?
No

Tell me whether Growth Rate is at least -0.1 here: Cc1ccc(C(=O)Nc2cc(N3CCN(C)CC3)cc(C(F)(F)F)c2)cc1-n1cc(-c2cnn(C)c2C)nn1.Cl
Yes

# check: Growth Rate of Cc1cc(OC2CCS(=O)(=O)CC2)cc(C)c1-c1cccc(COc2ccc(C(=O)O)c(F)c2)c1 is greater than or equal to -0.1
Yes
